Value Type: Ki (µM)
Report only the number, with the unit µM understood.

Record O=C(Cc1ccc2ccccc2c1)N1c2ccccc2Sc2ccccc21 ; system UniProt:P50406; Ki = 9.9

Ki value, target or system UniProt:P50406, for CC(C(=O)N1c2ccccc2Sc2ccccc21)c1ccccc1 (configuration not stated) : 1.2

====

Value Type: Ki (nM)
Field format: number, assumed nM, no unit text.

Here O=C(OCCN1CCCC1)N1c2ccccc2Sc2ccccc21 was tested on Alpha-2A adrenergic receptor (Homo sapiens, UniProt P08913), and its Ki came to 95

====

Could you please report measured pKi for the items listed next?
# Tgt: Muscarinic acetylcholine receptor M2 (Homo sapiens, UniProt P08172)
# Sequence (P08172 whole entry): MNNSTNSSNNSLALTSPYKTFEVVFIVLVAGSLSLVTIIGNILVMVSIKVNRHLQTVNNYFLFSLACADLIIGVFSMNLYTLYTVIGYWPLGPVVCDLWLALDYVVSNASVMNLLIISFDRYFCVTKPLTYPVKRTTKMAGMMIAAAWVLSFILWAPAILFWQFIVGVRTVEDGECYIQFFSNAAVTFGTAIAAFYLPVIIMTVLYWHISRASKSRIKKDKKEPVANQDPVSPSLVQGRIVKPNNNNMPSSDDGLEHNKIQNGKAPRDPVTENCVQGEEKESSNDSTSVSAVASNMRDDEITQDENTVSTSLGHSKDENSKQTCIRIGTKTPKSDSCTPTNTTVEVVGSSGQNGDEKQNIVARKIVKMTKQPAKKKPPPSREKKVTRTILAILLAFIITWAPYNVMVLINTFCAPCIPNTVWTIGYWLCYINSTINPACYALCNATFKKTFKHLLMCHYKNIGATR
pKi (log units): -log10 of the concentration in mol/L.

I looked up O=C(OCCN1CCCC1)N1c2ccccc2Sc2ccccc21 and its pKi for Muscarinic acetylcholine receptor M2 (Homo sapiens, UniProt P08172) was 7.00

Lab note: compound CCN(CC)CCCOC(=O)N1c2ccccc2Sc2ccccc21 tested on Muscarinic acetylcholine receptor M2 (Homo sapiens, UniProt P08172); recorded pKi was 6.66

====

Value Type: pKi
Quick note: pKi means taking -log10 of the concentration in moles per liter.

Response field pKi (Alpha-1D adrenergic receptor (Homo sapiens, UniProt P25100)) for item O=C(CCCc1ccccc1)N1c2ccccc2Sc2ccccc21 : 5.39

====

Field: pKi. Provide a value for each of the molecules that follow.
Scale for pKi: -log10 of concentration given in mol/L; no unit attached.

Tested on UniProtKB P35462, the item CC(C(=O)N1c2ccccc2Sc2ccccc21)c1ccccc1 (stereo not drawn) showed pKi equal to 5.05

Param item: CCN(CC)CCCOC(=O)N1c2ccccc2Sc2ccccc21 ; param system: UniProtKB P35462; output pKi: 6.00

UniProtKB P35462 assay, molecule O=C(OCCN1CCCC1)N1c2ccccc2Sc2ccccc21 , recorded pKi = 6.00

====

# Tgt: 5-hydroxytryptamine receptor 5A (Homo sapiens)
# Sequence (P47898 whole entry): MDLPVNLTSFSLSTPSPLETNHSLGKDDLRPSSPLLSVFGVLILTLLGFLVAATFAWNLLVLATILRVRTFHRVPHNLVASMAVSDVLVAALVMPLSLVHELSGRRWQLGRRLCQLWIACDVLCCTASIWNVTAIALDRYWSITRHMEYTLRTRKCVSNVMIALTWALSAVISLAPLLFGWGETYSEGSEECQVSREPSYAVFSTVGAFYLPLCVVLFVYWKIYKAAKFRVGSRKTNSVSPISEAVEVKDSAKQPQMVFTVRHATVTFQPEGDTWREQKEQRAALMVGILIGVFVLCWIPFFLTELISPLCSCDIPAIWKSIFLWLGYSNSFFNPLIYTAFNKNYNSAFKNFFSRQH
Value Type: pKi
Entry type: numeric. Quantity: pKi, the -log10 of concentration in molar units.

The value of pKi recorded for O=C(OCCN1CCCC1)N1c2ccccc2Sc2ccccc21 when tested on 5-hydroxytryptamine receptor 5A (Homo sapiens) reads 5.66

====

pKi, 5-hydroxytryptamine receptor 2B (Homo sapiens, UniProt P41595), per-entry values.
For clarity, pKi is expressed as the negative log10 of concentration in mol/L.

The compound listed as O=C(Cc1ccc2ccccc2c1)N1c2ccccc2Sc2ccccc21 has a reported pKi of 5.70

# compound CCN(CC)CCCOC(=O)N1c2ccccc2Sc2ccccc21 ; its pKi = 6.20

Reported pKi for O=C(OCCN1CCCC1)N1c2ccccc2Sc2ccccc21 was 7.00

Lab note: CC(C(=O)N1c2ccccc2Sc2ccccc21)c1ccccc1 (centres undefined) gave pKi of 6.77

====

# Tgt: Sodium-dependent dopamine transporter (Homo sapiens, UniProt Q01959)
# Sequence (Q01959 whole entry): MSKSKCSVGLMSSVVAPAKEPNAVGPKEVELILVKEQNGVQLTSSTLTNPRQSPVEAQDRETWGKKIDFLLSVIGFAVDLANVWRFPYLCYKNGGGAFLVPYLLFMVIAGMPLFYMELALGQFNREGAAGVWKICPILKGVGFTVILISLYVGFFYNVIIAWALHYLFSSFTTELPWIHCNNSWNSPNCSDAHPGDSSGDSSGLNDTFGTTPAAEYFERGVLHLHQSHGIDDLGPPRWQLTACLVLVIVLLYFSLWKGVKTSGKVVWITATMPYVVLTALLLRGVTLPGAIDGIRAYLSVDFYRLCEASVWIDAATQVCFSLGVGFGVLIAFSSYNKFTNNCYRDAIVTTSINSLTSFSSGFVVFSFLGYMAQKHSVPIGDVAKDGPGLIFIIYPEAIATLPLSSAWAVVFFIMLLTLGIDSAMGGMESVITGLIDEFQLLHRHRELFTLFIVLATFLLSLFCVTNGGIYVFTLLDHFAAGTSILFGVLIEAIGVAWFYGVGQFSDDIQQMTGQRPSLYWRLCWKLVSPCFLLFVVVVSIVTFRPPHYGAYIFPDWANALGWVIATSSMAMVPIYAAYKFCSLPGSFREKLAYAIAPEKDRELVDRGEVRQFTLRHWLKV
Value Type: pKi
// pKi here means minus log10 of the molar concentration (mol/L)

So for O=C(OCCN1CCCC1)N1c2ccccc2Sc2ccccc21 , the logged pKi turned out to be 6.01

Lookup result for O=C(c1cccc(Br)c1)N1c2ccccc2Sc2ccccc21 ; measured pKi: 7.04

Lab book: pKi of O=C(Cc1ccc2ccccc2c1)N1c2ccccc2Sc2ccccc21 noted as 5.18

Looking up O=C(CCCc1ccccc1)N1c2ccccc2Sc2ccccc21 , I found its pKi recorded as 5.48

Documented pKi of O=C(Oc1cccc2ccccc12)N1c2ccccc2Sc2ccccc21 : 5.41

Noted for CCN(CC)CCCOC(=O)N1c2ccccc2Sc2ccccc21 : its pKi reads 5.22

====

Can you tell me Ki for the items I'm about to list?
Give a bare numeral; the unit µM is implied.

Short answer on UniProt:P13945 for CC(C(=O)N1c2ccccc2Sc2ccccc21)c1ccccc1 (configuration not stated) , Ki: 2.5

Given the compound O=C(CCCc1ccccc1)N1c2ccccc2Sc2ccccc21 and test system UniProt:P13945, the measured Ki is 1.7

====

Value Type: Ki (nM)
Express it in nM; write the number only.

Item CCN(CC)CCCOC(=O)N1c2ccccc2Sc2ccccc21 was tested on Muscarinic acetylcholine receptor M3 (Homo sapiens); the reported Ki is 170

Entry O=C(OCCN1CCCC1)N1c2ccccc2Sc2ccccc21 , Muscarinic acetylcholine receptor M3 (Homo sapiens) data, Ki value: 66

====

# Tgt: Histamine H1 receptor (Homo sapiens)
# Sequence (P35367 whole entry): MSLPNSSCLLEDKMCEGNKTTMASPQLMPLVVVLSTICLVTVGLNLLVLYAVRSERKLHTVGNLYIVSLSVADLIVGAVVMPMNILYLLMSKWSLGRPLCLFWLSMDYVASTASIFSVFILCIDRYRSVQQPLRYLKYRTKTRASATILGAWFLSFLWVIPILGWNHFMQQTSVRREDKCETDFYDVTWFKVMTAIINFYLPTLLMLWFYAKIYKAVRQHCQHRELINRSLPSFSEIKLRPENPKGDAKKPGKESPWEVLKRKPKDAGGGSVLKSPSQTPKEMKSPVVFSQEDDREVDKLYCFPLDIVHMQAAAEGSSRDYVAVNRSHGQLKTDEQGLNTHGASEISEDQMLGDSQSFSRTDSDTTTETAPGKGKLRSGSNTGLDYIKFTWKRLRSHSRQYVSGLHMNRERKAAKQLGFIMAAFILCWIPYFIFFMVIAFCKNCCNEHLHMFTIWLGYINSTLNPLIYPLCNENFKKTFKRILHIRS
# Experimental Details: Antagonist activity at histamine H1 receptor (unknown origin) by PDSP assay
Value Type: pKi
Scale note: pKi = -log10(concentration in M).

Assay Histamine H1 receptor (Homo sapiens), sample CCN(CC)CCCOC(=O)N1c2ccccc2Sc2ccccc21 , pKi read: 6.37

Bench note, Histamine H1 receptor (Homo sapiens): O=C(OCCN1CCCC1)N1c2ccccc2Sc2ccccc21 , pKi reads 7.54

====

Please respond with reported pKi for every item in the list.
# Tgt: Muscarinic acetylcholine receptor M4 (Homo sapiens, UniProt P08173)
# Sequence (P08173 whole entry): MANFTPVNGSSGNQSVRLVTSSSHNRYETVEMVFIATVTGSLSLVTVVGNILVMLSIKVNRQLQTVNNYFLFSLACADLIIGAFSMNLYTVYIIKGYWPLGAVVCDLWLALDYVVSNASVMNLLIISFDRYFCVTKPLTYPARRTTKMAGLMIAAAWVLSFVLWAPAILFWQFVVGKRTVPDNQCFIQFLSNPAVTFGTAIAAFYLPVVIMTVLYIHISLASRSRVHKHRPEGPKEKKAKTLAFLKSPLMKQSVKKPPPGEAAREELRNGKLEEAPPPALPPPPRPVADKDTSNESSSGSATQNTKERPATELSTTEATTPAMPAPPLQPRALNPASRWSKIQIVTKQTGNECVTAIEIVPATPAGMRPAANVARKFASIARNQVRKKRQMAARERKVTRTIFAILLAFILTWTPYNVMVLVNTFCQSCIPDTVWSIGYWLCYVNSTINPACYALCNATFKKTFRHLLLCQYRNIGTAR
Reminder that pKi means the negative base-10 logarithm of the concentration expressed in mol/L.

So, O=C(OCCN1CCCC1)N1c2ccccc2Sc2ccccc21 ? Its pKi was 7.27

Documented pKi of CCN(CC)CCCOC(=O)N1c2ccccc2Sc2ccccc21 : 7.68

====

These records show pKi for 5-hydroxytryptamine receptor 1A (Homo sapiens, UniProt P08908).
pKi is a log-scale quantity: -log10 of the concentration expressed in molar.

Reported pKi for CC(C(=O)N1c2ccccc2Sc2ccccc21)c1ccccc1 (stereo not drawn) was 5.96

// pKi value for O=C(OCCN1CCCC1)N1c2ccccc2Sc2ccccc21 : 5.77

Per the record, CCN(CC)CCCOC(=O)N1c2ccccc2Sc2ccccc21 has pKi of 6.35

====

Value Type: Ki (µM)
Provide the reading as a plain figure in µM.

Ki value, target or system Sodium-dependent serotonin transporter (Homo sapiens), for O=C(CCCc1ccccc1)N1c2ccccc2Sc2ccccc21 : 3.8

====

Value Type: pKi
Scale: pKi equals -log10([C]), with [C] in mol/L.

The measured pKi that O=C(OCCN1CCCC1)N1c2ccccc2Sc2ccccc21 showed for 5-hydroxytryptamine receptor 3A (Homo sapiens, UniProt P46098) is 5.72

GET /values?item= CCN(CC)CCCOC(=O)N1c2ccccc2Sc2ccccc21 &system= 5-hydroxytryptamine receptor 3A (Homo sapiens, UniProt P46098) returns pKi: 5.41

====

Record form. Attribute: pKi. Fill in for each entry.
In plain terms, pKi is the concentration in mol/L turned into minus its base-10 logarithm.

For O=C(Oc1cccc2ccccc12)N1c2ccccc2Sc2ccccc21 on Cholinesterase (Homo sapiens, UniProt P06276), measured pKi was 7.40

The reported pKi value, Cholinesterase (Homo sapiens, UniProt P06276), for O=C(Cc1ccc2ccccc2c1)N1c2ccccc2Sc2ccccc21 reads 7.52

The compound O=C(C1CCCCCC1)N1c2ccccc2Sc2ccccc21 on Cholinesterase (Homo sapiens, UniProt P06276): pKi was 6.07

====

# Tgt: UniProt P28221
# Sequence (P28221 whole entry): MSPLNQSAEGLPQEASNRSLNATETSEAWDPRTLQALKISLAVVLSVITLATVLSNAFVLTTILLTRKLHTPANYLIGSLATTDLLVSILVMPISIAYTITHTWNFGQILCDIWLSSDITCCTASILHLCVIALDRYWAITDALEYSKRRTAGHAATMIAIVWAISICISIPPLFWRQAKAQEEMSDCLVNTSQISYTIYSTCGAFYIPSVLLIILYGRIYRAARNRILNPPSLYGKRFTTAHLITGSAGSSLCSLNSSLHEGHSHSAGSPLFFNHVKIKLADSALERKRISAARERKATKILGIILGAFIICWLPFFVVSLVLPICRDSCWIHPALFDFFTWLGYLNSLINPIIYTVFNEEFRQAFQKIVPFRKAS
Value Type: Ki (nM)
Number in nM, nothing else.

What the record says about CCN(CC)CCCOC(=O)N1c2ccccc2Sc2ccccc21 : Ki is 2700
